# Test system: MS2 coat protein
# ASSAY: apparent KD of MS2 coat protein; higher = weaker reporter binding
# MEASUREMENT SETUP: Eterna round: R107; input ligand: none
ENDPOINT: apparent KD of MS2 coat protein (nM)
The reply should contain only the number, in nM.

For orientation, consider the following solved cases.
sequence_text="AGAGCAUUGACGGCCGCCACUCAUGUCACAUGAGGAUCACCCAUGUGAUGGGUAAUUGCCCGGUUGAGGACCGGGUCAAUGCUCA [Omei Tryp SS B v4]" test_target="MS2 coat protein" endpoint="apparent KD of MS2 coat protein" u=nM observed_measurement=8.32
sequence_text="CUCUGAGUGAGGAAUCACUCAGAGGCGGAUACCAGCGAGGUCCAUCGCCCUUGGCAGCCGAACAUGAGGAUCACCCAUGUCGGUA [#1 Same State - Theophylline A Attempt #23 (HarryS)]" test_target="MS2 coat protein" endpoint="apparent KD of MS2 coat protein" u=nM observed_measurement=9.45

API: the following record is the query input.
// apparent KD of MS2 coat protein lookup, sequence = CAUAUAUAUUGAAGGAGCGACAUGAGGAUCACCCAUGUCUACCACGUCGAAAGACGCUCAUGUCAGGUAGGUCGCAAUAUAUAUG [Astros-Eli-mod5] , result: 124

---

# System: K4 kissing-loop RNA reporter
# ASSAY: apparent KD of K4 kissing-loop reporter; higher = weaker reporter binding
# MEASUREMENT SETUP: Eterna round: R107; input ligand: tryptophan 2.4 mM
The reader will find reported apparent KD of K4 kissing-loop reporter values listed item by item below.
The reply should contain only the number, in nM.

sequence_text="GGAUAGGAUAGAGGAUAUGGUAGUGAUGUUACCAAACUGGUUAAACAUGUCAGAAAACUGGCAUGACCAGAAGGUUGUCCUAUCG [FmnBX 27 U9+U75]" test_target="K4 kissing-loop RNA reporter" endpoint="apparent KD of K4 kissing-loop reporter" observed_measurement=61.5

// apparent KD of K4 kissing-loop reporter lookup, sequence = GUAUCGCUAGGAGGAUAUUUCAAUCUGACUCUUUGAGUUAGUACGGAGUGAUGUUCCGAUUUACGGAAAGAAGGCCUAGUGAUAC [FMN B 11] , result: 299

// apparent KD of K4 kissing-loop reporter lookup, sequence = GCUAUGGUAGGAAGGAGCGCUGCGUUGUUUUUACGAGUGAUGUUCGGAAGCGGCGUGUUAAAGCAGGUAGGUCGCCUACUAUAGC [Arginine B K4 24] , result: 154

// apparent KD of K4 kissing-loop reporter lookup, sequence = UUUCGUUGAAGUGAUACCAGACUUGAAAGUGAUGUUUUCCAAUAAUUUAAAUUAUUAGCUGUCCCUUGGCAGCACAGUUUAUUUA [JR_ExcTheophyB_Sub007] , result: 208

// apparent KD of K4 kissing-loop reporter lookup, sequence = AGACUACCACACUGUCAAUAGACAGUGUACUAGGAUAUGCUGAUAAGCAGAAGGAGUGAUGUUCCUGGGUAGUCAAUAAAAUAAU [FmnAX 13 U28+G67] , result: 404

// apparent KD of K4 kissing-loop reporter lookup, sequence = CUAUGGAAACAUAGGAGUCGGGAAACCGAUACCAGUAUGGAAACAUACCCUUGGCAGCGGAAUGAUUCAACGGAGUGAUGUUCCG [Theophylline A K4 19] , result: 366

---

# Test system: MS2 coat protein
# ASSAY: apparent KD of MS2 coat protein; higher = weaker reporter binding
# MEASUREMENT SETUP: Eterna round: R107; input ligand: none
The reader will find reported apparent KD of MS2 coat protein values listed item by item below.
The reply should contain only the number, in nM.

sequence_text="ACACAUGAUAGAAGGAGCGCAAUGAACACACAUGAGGAUCACCCAUGUUUUUUUUGUGUUUUGCAGGUAGGUCGCUAACAUGAGG [Same State Arginine B 4]" test_target="MS2 coat protein" observed_measurement=8.66
sequence_text="AACAUGAGGAUCACCCAUGUCGGGCCGGAGCGAGGACCGGUACGGCCGCCACUCGAGACAUGAGGAUCACCCAUGUAGGGCGAAA [Exclusion Tryptophan A GF21]" test_target="MS2 coat protein" observed_measurement=116
sequence_text="CACGCGGUGUCGGCCGCCACUGACGCCCGUGGGUCUCCUGACAUGAGGAUCACCCAUGUACAGCGCAGGACCGGGACACCAACAA [Are]" test_target="MS2 coat protein" observed_measurement=49.4
sequence_text="GGACUAACCUGAAGGAGCGACACGCAGAAACUGCAAAUUCCUCCACACGAGGAUCACCCGUGUCAGGUAGGUCGCAGGUUAGUCG [ArgBX 28]" test_target="MS2 coat protein" observed_measurement=20.2
sequence_text="GACAUGAGGAUCACCCAUGUACCGCGAGAAGGAGCGCGGAUAAACGCAGGUAGGUCGCUCGUGGGCUUACAUUCAAGUGUAAGCU [Usarat]" test_target="MS2 coat protein" observed_measurement=106

API: the following record is the query input.
// apparent KD of MS2 coat protein lookup, sequence = UGUACCAUGUCGGCCGCCACUCAUGAUAAACCUGAGGAUCACCCUGGUAGCGUCAAAGACGCUAUGAGGACCGGGACAUGGUACU [TryBS Zipper 2] , result: 24.4

---

# System: K4 kissing-loop RNA reporter;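 further: bound reporter read as fluorescence of individual clusters on recovered sequencing chips by microscopy, with normalized cluster intensities fitted with a binding model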
# ASSAY: apparent KD of K4 kissing-loop reporter; higher = weaker reporter binding
# MEASUREMENT SETUP: Eterna round: R107; input ligand: FMN 200 uM
Short version: apparent KD of K4 kissing-loop reporter at least 200 nM is met, less is not met.

These solved cases illustrate the format of a correct answer.
sequence_text=GCCUGGGCACGAAGGAGCGCCGUGACAGGUUACUGCAUUGGGCAGUGAUGUUGCUCAAUCUGGCAGGUAGGUCGCGUGCCCAGGC assigned_class="not met"
sequence_text="UACAUAUAGUUAUUUCUACAUUUAUUUAGUCAGGAUAUCGAUUAGACGAGAAGGGACAAUAUCAAGUGAUGUUUGAUAAUUCAAA [JR_ExcFMNA_Sub011]" assigned_class="not met"
sequence_text="CCCGGGUCGUCAGGAUAUGAGUGCAGUGAUGUUGCACGGGUCUUUGCAGGCCCUGGUGAGGCGUACUCAGAAGGGACGCCAGGUC [Atazazaed]" assigned_class=met
sequence_text="GGGCCUCUGGCUGAUACCAGUGAUAAAGGGUAAGAGACAGGGAGUGAUGUUCCCUUUAGCCACCCUUGGCAGCAGUUUAAGUUUG [Exclusion Theophylline B GF 18]" assigned_class="not met"
sequence_text="UAAUAAAUUCCAGCGAUAUCGCUCUUCGAAGGAGCGGGCGAAGGUCCAGGUAGGUCGCGGAGAGUGAUGUUCUUUGCGGCGCUGG [whbob_Ex_Arginine_A_2t135]" assigned_class=met
sequence_text="GUUACGCAUGGAAGGAGCGCUCUCAUGCUUAAUAACACAGUGAUGUUGUGAAUUUGCAUAAAGCAGGUAGGUCGCCAUGUGUAAC [Ex Arginine B K4 8]" assigned_class=met
sequence_text=GCCGUACGCAUGGAUACCAGUCUUAGAGUGAUGUUCUAUACGAUUGCGCCUGGAUCAAUGGACCCUUGGCAGCCAUGCGUACGGC assigned_class="not met"
sequence_text="AGCGAUGUUUUCUCUAGGAGUGAUGUUUUUCGAGGACCGGUACGGCCGCCACUCGGACGACGAGUGUGGUAGUGGGCUGUUGACU [ffmullin]" assigned_class=met

Prompt line: State whether the measured apparent KD of K4 kissing-loop reporter reaches 200 nM, counting equality as reaching it, for CGCCGCAAGGCGAGCGCUCCCACUCCGGAAGGAGCGCCCGAAAGGGCAGGUAGGUCGCCGGAGUGAUGUUCCGGUGGAGGGCUCG [#2 Exclusion - Arginine A Attempt #27 (Inspired by Omei)]
Response line: met

Prompt line: State whether the measured apparent KD of K4 kissing-loop reporter reaches 200 nM, counting equality as reaching it, for AACUCUCAGGCACGCGAGUGAUGUUCGCGCCGAGGACCGGUACGGCCGCCACUCGGGCCUGAGAGAGGUUAUCAAAGAUAGCCAA [whbob_SS_tryp_A]
Response line: met

---

# System: MS2 coat protein
# ASSAY: apparent KD of MS2 coat protein; designed switch direction (-1 OFF switch, 1 ON switch): -1; higher = weaker reporter binding
# MEASUREMENT SETUP: input ligand: none
The reader will find reported apparent KD of MS2 coat protein values listed item by item below.
The reply should contain only the number, in nM.

For orientation, consider the following solved cases.
sequence_text="CUCUAGUCAGGAUAUUAGUUGCCGCCUGGCAACAGGCGGCAUGAGAAGGGACUUGAGGAUCACCCAAGUAAAAG [Rabebete] (Eterna round: R97, puzzle: Exclusion 4)" endpoint="apparent KD of MS2 coat protein" observed_measurement=368
sequence_text="CUGUUUUUCGCAGGAUAUGCUCCUCCUUUAUUUGCAGAAGGGCGUUAAACAUGAGGAUCACCCAUGUAUGGUAAUGACAUUUUC [JR_ExcNG1_Sub063] (Eterna round: R96, puzzle: Exclusion NG 1)" endpoint="apparent KD of MS2 coat protein" observed_measurement=29.6
sequence_text="ACAUGUAUUGCAGGAUAUGGGACACAUGAGGAUCACCCAUGUGACCACAUGUAAUGCCACGGGUCUCAGAAGGGUAUGUACAUG [Ex NG2 #43] (Eterna round: R96, puzzle: Exclusion NG 2)" endpoint="apparent KD of MS2 coat protein" observed_measurement=26.6
sequence_text="AGAGUGCUGCGAGGAUAUACAUGAGGAUCACCCAUGUUAUCGUGUGAGGCUUUGCCUCACACGAAGUAGAAGGCGCAGUACUCA [Mat - Exclusion NG 2 - Mod of JL - D100] (Eterna round: R96, puzzle: Exclusion NG 2)" endpoint="apparent KD of MS2 coat protein" observed_measurement=14.2
sequence_text="CUAGCAAUUGUAGGAUAUCGAUGUGUUUCACAUCGAGAAGGACAUGAGGAUCACCCAUGUGAAAGGAUCGUGAGAUCCAGCUAG [JL ENG1 3.75] (Eterna round: R96, puzzle: Exclusion NG 1)" endpoint="apparent KD of MS2 coat protein" observed_measurement=30.3
sequence_text="UCCUUAGCGGUCAGGAUAUACACCCGUUUCUCCUUGUAGAAGGGACAUGAGGAUCACCCAUGUACAGUACAUCU [alecazam64] (Eterna round: R97, puzzle: Brourd's mod of Exclusion 4)" endpoint="apparent KD of MS2 coat protein" observed_measurement=17.6

// apparent KD of MS2 coat protein lookup, sequence = UGCAGACGAGGAUAUAAACGAUAUAACAUGAGGAUCACCCAUGUACGAUCGAAUGAUCGUUUAGAAGGCGUCUGCU [E5/10-A3] (Eterna round: R97, puzzle: Exclusion 5) , result: 16.2

// apparent KD of MS2 coat protein lookup, sequence = CACCCACAUGAGGAUCACCCAUGUGAGGAUAUGAUACUAUGUACUUCGGUACAUAGUAUCAGAAGGCACAGGUG [Ex1-3: 61] (Eterna round: R96, puzzle: Exclusion 1) , result: 28

// apparent KD of MS2 coat protein lookup, sequence = GUCAUCAAACAUGGGAUCAACAUGAGGAUCACCCAUGUUGACAAGUUUUUUGCUCGUCUUAUAAUAAGUUUGAUGAC [Antenna 9 - Jieux - Sensor, turn-off variant 1] (Eterna round: R97, puzzle: Sensor, turn-off variant 1) , result: 16.2
